This section presents compounds with their documented aqueous solubility values.
Condition Details: pH 6.8
Readout: aqueous solubility (µg/mL)

[
  {
    "Compound": "COc1cc2c(cc1OC)CN(C(=O)C1CCCN(S(=O)(=O)c3ccc(F)cc3)C1)CC2 (centres undefined)",
    "Readout": "aqueous solubility",
    "Endpoint Result": 7.05
  },
  {
    "Compound": "CCCc1nc(N2CCc3ccccc3C2)ncc1C(=O)O",
    "Readout": "aqueous solubility",
    "Endpoint Result": 51.4
  },
  {
    "Compound": "O=C(NC1CCCC1)N1CCN(c2nccn3nc4c(c23)CCCC4)CC1",
    "Readout": "aqueous solubility",
    "Endpoint Result": 17.1
  },
  {
    "Compound": "O=C(c1ccccc1-n1cccn1)N1CCN(Cc2cccnc2)CC1",
    "Readout": "aqueous solubility",
    "Endpoint Result": 54.4
  },
  {
    "Compound": "COc1cc(CC(=O)Nc2ccccc2F)ccc1C",
    "Readout": "aqueous solubility",
    "Endpoint Result": 26
  },
  {
    "Compound": "O=C(Cc1ccccc1F)N1CCN(c2nccn3nc4c(c23)CCCC4)CC1",
    "Readout": "aqueous solubility",
    "Endpoint Result": 56.1
  },
  {
    "Compound": "O=C(C1CCCN(Cc2cc3c(cc2O)OCO3)C1)N1CCOCC1 (centres undefined)",
    "Readout": "aqueous solubility",
    "Endpoint Result": 55.8
  },
  {
    "Compound": "NC(=O)Cn1nnc(-c2ccccc2)n1",
    "Readout": "aqueous solubility",
    "Endpoint Result": 11
  },
  {
    "Compound": "NCCC(=O)Nc1ccc2[nH]c(=O)[nH]c2c1",
    "Readout": "aqueous solubility",
    "Endpoint Result": 143
  },
  {
    "Compound": "CN1CCN(CCOc2ccccc2N)CC1",
    "Readout": "aqueous solubility",
    "Endpoint Result": 38.1
  },
  {
    "Compound": "Cc1nonc1C(=O)NCCc1c[nH]c2cccc(C3(O)CCOCC3)c12",
    "Readout": "aqueous solubility",
    "Endpoint Result": 61.2
  },
  {
    "Compound": "O=S(=O)(N1CCOCC1)N1CCN(Cc2ccccc2F)CC1",
    "Readout": "aqueous solubility",
    "Endpoint Result": 36
  },
  {
    "Compound": "CC(=O)Nc1cccc(CN2CCCN(C(C)=O)c3ccccc32)c1",
    "Readout": "aqueous solubility",
    "Endpoint Result": 29.6
  },
  {
    "Compound": "COC(=O)c1ccc(NS(=O)(=O)c2ccc3c(c2)n(C)c(=O)n3C)cc1",
    "Readout": "aqueous solubility",
    "Endpoint Result": 15.6
  },
  {
    "Compound": "Oc1cccc(/C=C/c2nc3ccccc3o2)c1",
    "Readout": "aqueous solubility",
    "Endpoint Result": 0.7
  },
  {
    "Compound": "O=C(/C=C\\n1cnc(-c2cc(C(F)(F)F)cc(C(F)(F)F)c2)n1)NNc1cnccn1",
    "Readout": "aqueous solubility",
    "Endpoint Result": 12.5
  },
  {
    "Compound": "O=C(CN1CCCC(c2cccc(-c3cccc(Cl)c3)n2)C1)N1CCCC1 (centres undefined)",
    "Readout": "aqueous solubility",
    "Endpoint Result": 54.8
  },
  {
    "Compound": "CC(C)Oc1ccc(C(=O)Nc2cccc(-c3nc4cnccc4o3)c2)cc1",
    "Readout": "aqueous solubility",
    "Endpoint Result": 0.54
  },
  {
    "Compound": "CN(C(=O)C1CCN(c2ncccn2)CC1)C1CCCCCCC1",
    "Readout": "aqueous solubility",
    "Endpoint Result": 49.4
  },
  {
    "Compound": "CCCCN(C)C(=O)c1cn(-c2ccc(C)c(C)c2)nn1",
    "Readout": "aqueous solubility",
    "Endpoint Result": 8.81
  },
  {
    "Compound": "O=C(CC1CCNCC1)NCCc1ccccc1F",
    "Readout": "aqueous solubility",
    "Endpoint Result": 58.5
  },
  {
    "Compound": "CCOc1cccc(C(=O)Nc2ccc3c(c2)CCC(=O)N3C)c1",
    "Readout": "aqueous solubility",
    "Endpoint Result": 9.14
  },
  {
    "Compound": "O=C1c2cccc3cccc(c23)C(=O)N1CCN1CCOCC1",
    "Readout": "aqueous solubility",
    "Endpoint Result": 36.9
  },
  {
    "Compound": "COc1cc2ncn(-c3cc(OCc4ccccc4S(C)(=O)=O)c(C#N)s3)c2cc1OC",
    "Readout": "aqueous solubility",
    "Endpoint Result": 0.3
  }
]

====

Property: intrinsic clearance, human liver microsomes; scope: individual compounds
Readout: intrinsic clearance, human liver microsomes (mL/min/kg)

[
  {
    "Record Smiles": "Cc1ccc(C)c(S(=O)(=O)N2CCCN(CCn3cccn3)CC2)c1",
    "Relation Sign": "=",
    "Endpoint Result": 207
  },
  {
    "Record Smiles": "O=C(CSCCc1ccccn1)Nc1ccccc1",
    "Relation Sign": "=",
    "Endpoint Result": 42.1
  },
  {
    "Record Smiles": "Cc1c(C)n(Cc2ccccc2)c2ncnc(N)c12",
    "Relation Sign": "=",
    "Endpoint Result": 16
  },
  {
    "Record Smiles": "CCOc1ccnc(NCCCc2nc3cc(F)ccc3[nH]2)n1",
    "Relation Sign": "=",
    "Endpoint Result": 237
  },
  {
    "Record Smiles": "COc1ccc2cc(C(=O)NCc3nnc4n3CCCCC4)ccc2c1",
    "Relation Sign": "=",
    "Endpoint Result": 13.8
  },
  {
    "Record Smiles": "Cc1nc2ncc3c(n2n1)CC(C)(C)CC3=O",
    "Relation Sign": "≤",
    "Endpoint Result": 4.74
  }
]

====

Binary classification by intrinsic clearance, rat liver microsomes, with 400 mL/min/kg as an inclusive lower bound for y; all other cases are n.

[
  {
    "Record Smiles": "COc1cccc(C)c1C(=O)N[C@H](CO)CCSC",
    "Class Assignment": "y"
  },
  {
    "Record Smiles": "Clc1ccc2[nH]c(COc3ccccc3)nc2c1",
    "Class Assignment": "n"
  },
  {
    "Record Smiles": "O=C(CSc1nccn1C1CC1)Nc1c(Cl)cc(Cl)cc1C(=O)O",
    "Class Assignment": "n"
  },
  {
    "Record Smiles": "CCCCOc1ccc(C(=O)NCc2cc(C)on2)cc1",
    "Class Assignment": "y"
  },
  {
    "Record Smiles": "O=c1n(CCn2ccnc2)nnn1-c1cccs1",
    "Class Assignment": "n"
  },
  {
    "Record Smiles": "N#CCCN(C(=O)c1cccs1)C12CC3CC(CC(C3)C1)C2",
    "Class Assignment": "y"
  },
  {
    "Record Smiles": "C[C@H]1CN2C[C@H](O)C[C@@H]2CN1Cc1cccc2ccccc12",
    "Class Assignment": "y"
  },
  {
    "Record Smiles": "c1ccc(CCn2cnc3c2CCN(c2ncccn2)C3)cc1",
    "Class Assignment": "y"
  },
  {
    "Record Smiles": "Oc1cccc(CN2CCN(c3ncc(Br)cn3)CC2)c1",
    "Class Assignment": "n"
  },
  {
    "Record Smiles": "COc1cccc(Oc2ccc(NC(=O)CN3CCOCC3)cn2)c1",
    "Class Assignment": "n"
  },
  {
    "Record Smiles": "O=C(c1ccc2c(c1)OCO2)N1CCC(c2n[nH]c(C3CC3)n2)CC1",
    "Class Assignment": "n"
  },
  {
    "Record Smiles": "O=C(CSCCc1ccncc1)Nc1ccccc1",
    "Class Assignment": "y"
  }
]

====

In this section we review reported log10 intrinsic clearance, rat liver microsomes values for a set of compounds.
Readout: log10 intrinsic clearance, rat liver microsomes (log10 of the value in mL/min/kg)

[
  {
    "Compound": "CCc1nc(N2CC(CO)C2)c2ccsc2n1",
    "Endpoint Result": 1.70
  },
  {
    "Compound": "O=C(CN1CCc2ccccc21)N1CCNC1=O",
    "Endpoint Result": 1.21
  },
  {
    "Compound": "COc1c(C)cnc(Cn2cnc3c(Cl)nc(N)nc32)c1C",
    "Endpoint Result": 1.86
  },
  {
    "Compound": "O=C(COc1ccc2ccc(=O)oc2c1)Nc1cccc(COCc2ccco2)c1",
    "Endpoint Result": 2.63
  },
  {
    "Compound": "CC(C)c1nc(O)c2nnn(C[C@@H]3CCCN(Cc4cccs4)C3)c2n1",
    "Endpoint Result": 3.00
  },
  {
    "Compound": "CC#CC(=O)N1CC[C@@H](n2c(=O)n(-c3ccc(Oc4ccccc4)cc3)c3c(N)ncnc32)C1",
    "Endpoint Result": 2.27
  },
  {
    "Compound": "Cc1cnc(NCC2(CO)CCCC2)nc1N(C)C",
    "Endpoint Result": 3.02
  },
  {
    "Compound": "Cc1ccc2[nH]c(CNC(=O)c3cc(C(F)F)nn3C)nc2c1C",
    "Endpoint Result": 2.27
  },
  {
    "Compound": "Cc1cc(N2CCCC2)nc(C2CCCN(C)C2)n1 (configuration not stated)",
    "Endpoint Result": 2.52
  },
  {
    "Compound": "COc1ccc(Nc2nc(Cl)cc(Cl)n2)cc1",
    "Endpoint Result": 2.23
  },
  {
    "Compound": "Cn1ccc(CSc2n[nH]c(-c3cc(F)cc(F)c3)n2)n1",
    "Endpoint Result": 2.12
  }
]
